Source of measurements: patent US7579487B2

Form field: melting point (one value per entry).

[
  {
    "COMPOUND": "C/C=C(/NS(=O)(=O)c1ccc(C)cc1)C(=O)O",
    "OBSERVABLE": "melting point",
    "OBSERVED": "150.5 to 151.5 °C"
  }
]

get_value(item= CC(C)=C(NS(=O)(=O)CCCc1ccccc1)C(=O)O , readout=melting point) returns 104.5 to 106 °C

get_value(item= Cc1ccc(S(=O)(=O)N/C(=C/C(C)C)C(=O)O)cc1 , readout=melting point) returns 166.5 to 167.5 °C

get_value(item= COc1ccc(S(=O)(=O)NC(C(=O)O)=C(C)C)cc1 , readout=melting point) returns 162.5 to 163.5 °C

get_value(item= Cc1ccc(S(=O)(=O)NC(CC(C)C)C(=O)O)cc1 (stereo not drawn) , readout=melting point) returns 122 to 123 °C

get_value(item= CC(C)=C(NS(=O)(=O)c1ccc(C)cc1)C(=O)O , readout=melting point) returns 188.5 to 189.5 °C

get_value(item= O=C(O)C(NS(=O)(=O)c1ccc(F)cc1)C1CCCCC1 (stereo not drawn) , readout=melting point) returns 143 to 145 °C

get_value(item= O=C(O)C(NS(=O)(=O)c1ccc(F)cc1)=C1CCCCC1 , readout=melting point) returns 214 to 215 °C

get_value(item= Cc1ccc(S(=O)(=O)NC(C(=O)O)C2CCCCC2)cc1 (stereo not drawn) , readout=melting point) returns 182 to 184 °C

get_value(item= COc1ccc(S(=O)(=O)NC(C(=O)O)C(C)C)cc1 (stereo not drawn) , readout=melting point) returns 116.5 to 117.5 °C

get_value(item= Cc1ccc(S(=O)(=O)NC(C(=O)O)=C2CCCCC2)cc1 , readout=melting point) returns 221 to 222 °C

get_value(item= CCC(NS(=O)(=O)c1ccc(C)cc1)C(=O)O (stereo not drawn) , readout=melting point) returns 133.5 to 135.5 °C

====

OBSERVABLE: melting point

Here are 3 compounds together with their reported answers.
[
  {
    "SMILES TEXT": "CC(C)[C@H](NS(=O)(=O)Cc1ccccc1)C(=O)O",
    "melting point": "120 to 121.5 °C"
  },
  {
    "SMILES TEXT": "CC(C)=C(NS(=O)(=O)c1ccc(F)cc1)C(=O)O",
    "melting point": "172 to 173 °C"
  },
  {
    "SMILES TEXT": "CC(C)[C@H](NS(=O)(=O)CCCc1ccccc1)C(=O)O",
    "melting point": "151 to 152 °C"
  }
]

With those in mind, consider the next compound.
get_value(item= CC(C)=C(NS(=O)(=O)Cc1ccccc1)C(=O)O , readout=melting point) returns 194 to 195 °C
